target_desc: Human CD4 on CD4+CD25+ regulatory T cells of healthy donors (human, UniProt P01730 26-458)
assay_info: cell-based or functional assay
parameter: % Inh3 (%)
Provide the reading as a plain figure in %.

Below, each entry is followed by its recorded % Inh3 result.
[[record]]
binder = "LC master HC master (antibody, human IgG1, kappa, V domains shown) VH: EEQLVESGGGLVKPGGSLRLSCAASGFSFSDCRMYWLRQAPGKGLEWIGVISVKSENYGANYAESVRGRFTISRDDSKNTVYLQMNSLKTEDTAVYYCSASYYRYDVGAWFAYWGQGTLVTVSS VL: DIVMTQSPDSLAVSLGERATINCRASKSVSTSGYSYIYWYQQKPGQPPKLLIYLASILESGVPDRFSGSGSGTDFTLTISSLQAEDVAVYYCQHSRELPWTFGQGTKVEIKR"
parameter = "% Inh3"
result = 25.9

[[record]]
binder = "LC master HC A63G (antibody, V domains shown) VH: EEQLVESGGGLVKPGGSLRLSCAASGFSFSDCRMYWLRQAPGKGLEWIGVISVKSENYGANYGESVRGRFTISRDDSKNTVYLQMNSLKTEDTAVYYCSASYYRYDVGAWFAYWGQGTLVTVSS VL: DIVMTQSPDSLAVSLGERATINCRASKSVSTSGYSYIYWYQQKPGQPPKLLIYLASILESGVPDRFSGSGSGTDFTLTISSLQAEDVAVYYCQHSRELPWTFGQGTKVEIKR"
parameter = "% Inh3"
result = 19.5


Please turn your attention to the following entry.
INPUT: Data request, read-out % Inh3, for LC master HC S101T (antibody, V domains shown) VH: EEQLVESGGGLVKPGGSLRLSCAASGFSFSDCRMYWLRQAPGKGLEWIGVISVKSENYGANYAESVRGRFTISRDDSKNTVYLQMNSLKTEDTAVYYCSATYYRYDVGAWFAYWGQGTLVTVSS VL: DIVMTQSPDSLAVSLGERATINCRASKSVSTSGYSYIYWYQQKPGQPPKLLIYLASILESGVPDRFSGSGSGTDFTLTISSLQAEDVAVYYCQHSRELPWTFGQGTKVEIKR
OUTPUT: 0

Where do these numbers come from? They come from patent US20130004513A1.
